Taken from ChEMBL document CHEMBL1201862.

System: M14
Test: NCI tumour cell line growth inhibition, 48 h
Calls of active or inactive are those of the source. No stated cut-off is given here; in the data, active = GI50 up to about 1.1 µM and inactive = higher.
Your response should consist of one outcome taken from active, inactive

Example results:
C1CN(C23OC4(N5CCOCC5)C5C6CC(C7C6C4C72)C53)CCO1 (centres undefined)    inactive
O=C1c2c(O)cc(O)cc2OC(c2ccc(O)cc2O)C1O (centres undefined)    inactive
CCOC(=O)C1CN(C2CC2)CCC1=O (centres undefined)    inactive
CCSc1nc(=S)n(-c2ccccc2)c(C)c1C(C)=O    inactive
NCC1Nc2ccccc2[C@@H](O)C1O (some centres undefined)    inactive
CCC(C#N)NCc1ccc(CNC(C#N)CC)cc1 (centres undefined)    inactive
O=C1C(CN2CCCCC2)CCCC1CN1CCCCC1 (centres undefined)    inactive
CCCCCCCCOCC(O)COC (centres undefined)    inactive

For "O=C(c1ccsc1)c1cc2c(s1)C(=O)c1ccsc1C2=O" , what call appears in the results of this test?
active
